Cited source for all entries: patent US7652143B2

Target System: MMP13 (Homo sapiens)
Test Details: Inhibition of MMP 13 activity (fluorimetric peptide substrate cleavage)
Particulars: recombinant enzyme, APMA activation, pH 7.5 or pH 6.5, fluorimeter
Structures can show the parent of a compound that is named as a salt.
Property: IC50 (µM)

Examples with their reported IC50 follow.
Compound: CC(C)C(C(=O)NO)N1CCN(Cc2ccc(OCc3ccncc3)cc2)C1=O (centres unmarked) [Example 10, TFA]
IC50 [µM]: 4
//
Compound: COc1ccc(CC2CN(Cc3ccc(OCc4ccccc4)cc3)S(=O)(=O)N2C(C(=O)NO)C(C)C)cc1 (centres unmarked)
IC50 [µM]: 3.58

A: COc1ccc(CC2CN(C)C(=O)N2C(C(=O)NO)C(C)C)cc1 (centres unmarked)
B: CC(C)C(C(=O)NO)N1C(=O)N(Cc2ccccc2)CC1Cc1ccc2c(c1)OCO2 (centres unmarked)
C: COc1ccc(C2CN(Cc3ccccc3)C(=O)N2C(C(=O)NO)C(C)C)cc1 (centres unmarked)
Prompt: Rank order required: IC50, descending. Would you mind listing the labels in the order asked for?
Response: A, B, C

* * *

Target System: MMP13 (Homo sapiens, UniProt P45452)
Test Details: Inhibition of MMP 13 activity (fluorimetric peptide substrate cleavage)
Particulars: recombinant enzyme, APMA activation, pH 7.5 or pH 6.5, fluorimeter
Structures can show the parent of a compound that is named as a salt.
Property: IC50 (nM)

Compound: COc1ccc(CC2CN(Cc3ccc(OCc4ccccc4)cc3)C(=O)N2C(C(=O)NO)C(C)C)cc1 (stereo not drawn) [Example 16]
IC50 / nM: 420
//
Compound: CC(C)C(C(=O)NO)N1CCN(Cc2ccc(OCc3cccnc3)cc2)C1=O (stereo not drawn) [Example 11, TFA]
IC50 / nM: 5400
//
Compound: COc1ccc(CC2CN(Cc3ccccc3)C(=O)N2C(C(=O)NO)C(C)C)cc1 (stereo not drawn) [Example 15]
IC50 / nM: 400
//
Compound: CC(C)C(C(=O)NO)N1CCN(Cc2ccc(Oc3ccccc3)cc2)C1=O (stereo not drawn) [Example 4]
IC50 / nM: 80

A: CC(C)C(C(=O)NO)N1CCN(Cc2ccc(OCc3ccccc3)cc2)C1=O (stereo not drawn) [Example 1]
B: CC(C)C(C(=O)NO)N1C(=O)N(Cc2ccc(OCc3ccccc3)cc2)CC1Cc1ccc2c(c1)OCO2 (stereo not drawn) [Example 18]
Prompt: Of A and B , which shows the smaller IC50 value? Kindly give the label for the entry you pick.
Response: B
(B: 600 nM, A: 5000 nM)

* * *

Listed here: items and their measured pIC50.
Test system: primary bovine chondrocytes
Test Details: Inhibition of proteoglycan liberation from IL1α-stimulated primary bovine chondrocyte cultures
Assay type: cell-based
Particulars: Bos taurus, alginate culture, 5 ng/ml human IL1α, 16 hours, dimethylmethylene blue dye test
Structures can show the parent of a compound that is named as a salt.
Quick note: pIC50 values are minus log10 of concentrations in mol/L.

Compound: Cc1cc(COc2ccc(CN3CCN(C(C(=O)NO)C(C)C)C3=O)cc2)c2ccccc2n1 (stereo not shown) [Example 14, TFA]
Target System: primary bovine chondrocytes
pIC50: 4.89

Now for a further compound.
Prompt: I would be grateful if you could share the reported pIC50 for COc1ccc(CC2CN(Cc3ccc(OCc4ccccc4)cc3)C(=O)N2C(C(=O)NO)C(C)C)cc1 (stereo not shown) .
Response: 4.59
